Data provenance is patent US8445478B2.

RESULT_TYPE: melting point

Some solved entries appear below for comparison.
**Query** Please report the recorded melting point for CNC(=O)[C@H](C)NC(=O)c1cccc(NS(=O)(=O)CC2CN(C(c3ccc(Cl)cc3)c3ccc(Cl)cc3)C2)c1 [Compound No. 9] .
**Result** 171 to 173 °C

**Query** Please report the recorded melting point for NC(=O)CNC(=O)c1cccc(NS(=O)(=O)CC2CN(C(c3ccc(Cl)cc3)c3ccc(Cl)cc3)C2)c1 [compound 16] .
**Result** 196 to 198 °C

More entries:
**Query** Please report the recorded melting point for NC(=O)CNC(=O)c1cc(F)cc(NS(=O)(=O)CC2CN(C(c3ccc(Cl)cc3)c3ccc(Cl)cc3)C2)c1 [Compound No. 2] .
**Result** 154 to 156 °C
